Assay text: yeast display, Sf9 membrane polyspecificity reagent, FACS + sequencing; frameworks hold sequencing errors

| Construct sequence | polyreactivity (PSR sort gate) |
| --- | --- |
| QVQLVESGGGLVQAGGSLRLSCAASGSTFRSYAMGWYRQAPGKERELVAAISYSGDSTYYADSVKGRFTISRDNAKNTVYLQMNSLKPEDTAVYYCAALRDWDIQGEPWKRYGYWGQGTQVTVSS | low polyreactivity |
| QVLLVDSGGGLVQAGGSLSLICAASGFTFYYNAMGWYRQAPGKERELVAGISGRGGTTYYADSVNGRFTISRDNAKNTVYLQMNSLKPEDTAVYYCAARKVRARSKFEYWGQGTQVTVSS | high polyreactivity |
| QVQLVESGGGLVQAGGSLRLNCAASGSIFVLYAMGWYRQAPRKERELVAAIRSTGSTNYADSVKGRFTISRDNAKNTVYLQMNSLKPEDTAVYYCAAYRRRTYAVNKEGGYWGQGTQVTVSS | high polyreactivity |
| QVQLVESGGGLVQAGGSLRLSCAASGSIFKPYAMGWYRQAPGKERELVARISWSTGRTYYADSVKGRFTISRDNAKNTVYLQMNSLKPEDTEVYDCDAAVAVRYGYWGQGTQVTVSS | high polyreactivity |
| QVQLVESGGGLVQAGGSLRLSCAASGGIFTYYAMGWYRQAPGKERELVAAISASGGSTYYADSVKGRFTISRDNAKNTVYLQMNSLKPEDTAVYYCAAGLPYGYGYDYWGQGTQVTVSS | low polyreactivity |
